- experimental-system: T1, ICAM-1-Fcγ (ICAM-1 residues of 1-480 fused to the Fc of human IgG, R&D Systems) (human, UniProt P05362 28-480)
- T1 construct: range 1-480; Bought (R&D Systems); also called ICAM-1-Fcγ chimera; not shown: Fc of human IgG
- T1 sequence (P05362 28-480 limits assumed, form in doubt): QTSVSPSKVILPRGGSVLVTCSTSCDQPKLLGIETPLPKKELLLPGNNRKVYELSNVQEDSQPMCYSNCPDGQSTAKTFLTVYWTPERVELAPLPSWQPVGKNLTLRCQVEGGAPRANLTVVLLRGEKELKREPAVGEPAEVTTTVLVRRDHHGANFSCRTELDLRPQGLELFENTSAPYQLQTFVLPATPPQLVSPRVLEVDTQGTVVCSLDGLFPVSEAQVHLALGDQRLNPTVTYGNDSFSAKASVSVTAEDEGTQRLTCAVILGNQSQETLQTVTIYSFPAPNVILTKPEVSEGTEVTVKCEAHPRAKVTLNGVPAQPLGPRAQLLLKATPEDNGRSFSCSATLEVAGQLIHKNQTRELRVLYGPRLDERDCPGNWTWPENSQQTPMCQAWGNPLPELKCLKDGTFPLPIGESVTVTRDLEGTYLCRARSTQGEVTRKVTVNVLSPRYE
- measurement-notes: flow cytometry on yeast-displayed I domain, ICAM-1-Fcγ 10 µg/ml
endpoint-name: ICAM-1 (% ASFI of HA)

Example binders with recorded ICAM-1 (% ASFI of HA):
binder	meas-value
αL I domain clone m1 (I258T), yeast-displayed (receptor, yeast surface display; not shown: Aga2, linker and hemagglutinin tag of pCTCON; c-myc tag) NVDLVFLFDGSMSLQPDEFQKILDFMKDVMKKLSNTSYQFAAVQFSTSYKTEFDFSDYVKWKDPDALLKHVKHMLLLTNTFGAINYVATEVFREELGARPDATKVLIIITDGEATDSGNIDAAKDIIRYTIGIGKHFQTKESQETLHKFASKPASEFVKILDTFEKLKDLFTELQKKIYVIEGTSKQDLT	10 % ASFI of HA
αL I domain clone f7 (F292P), yeast-displayed (receptor, yeast surface display; not shown: Aga2, linker and hemagglutinin tag of pCTCON; c-myc tag) NVDLVFLFDGSMSLQPDEFQKILDFMKDVMKKLSNTSYQFAAVQFSTSYKTEFDFSDYVKWKDPDALLKHVKHMLLLTNTFGAINYVATEVFREELGARPDATKVLIIITDGEATDSGNIDAAKDIIRYIIGIGKHFQTKESQETLHKFASKPASEFVKILDTPEKLKDLFTELQKKIYVIEGTSKQDLT	5 % ASFI of HA

Now for the binder whose ICAM-1 (% ASFI of HA) we want.
Sample αL I domain clone m2 (I258T, T267A, F277A), yeast-displayed (receptor, yeast surface display; not shown: Aga2, linker and hemagglutinin tag of pCTCON; c-myc tag) NVDLVFLFDGSMSLQPDEFQKILDFMKDVMKKLSNTSYQFAAVQFSTSYKTEFDFSDYVKWKDPDALLKHVKHMLLLTNTFGAINYVATEVFREELGARPDATKVLIIITDGEATDSGNIDAAKDIIRYTIGIGKHFQAKESQETLHKAASKPASEFVKILDTFEKLKDLFTELQKKIYVIEGTSKQDLT ; ICAM-1 (% ASFI of HA) observed: 10 % ASFI of HA
